TARGET_DESC: MBP-fused PDZ domain 2 of GRID2IP (human, UniProt A4D2P6 279-356)
Sequence (A4D2P6 279-356): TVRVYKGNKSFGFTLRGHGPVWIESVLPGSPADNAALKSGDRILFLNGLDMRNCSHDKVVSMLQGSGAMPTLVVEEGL
ASSAY_OVERVIEW: fluorescence polarisation
Where no end group is shown, it is not given here.
Reported Kd values for a set of binders
Give your result in µM as a bare value.

I am curious: what Kd value has been reported for KLPSTTL (peptide, UniProt Q15418 729-735, looked up, also: fluorescein labeled, site not given here) [fluorescein labeled RSK1 729-735 peptide, unphosphorylated] ?
5.1

I am curious: what Kd value has been reported for KLPSTTL (peptide, UniProt Q15418 729-735, looked up, phosphorylated; fluorescein labeled) [fluorescein labeled RSK1 729-735 peptide, phosphorylated] ?
47
